Assay: BSK_hDFCGF_Proliferation: Cell Proliferation Assessment in the BioMAP Diversity Plus: hDFCGF Assay (AID 2283059);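 further: curves fitted for both rise and fall of signal versus DMSO baseline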
Conditions: primary human foreskin fibroblasts
Calls of active or inactive are those of the source. How the source made its calls: active means hit-call score of the fitted dose curve at least 0.9, where 1 is the maximum; inactive means score below 0.9.
Choose the fitting class; nothing outside active, inactive is accepted.

[in] # lookup: test call for "CO[Si](OC)(OC)c1ccccc1"
[out] inactive

[in] # lookup: test call for "CCCCCCCCCCCCCCCC[N+](C)(C)CC"
[out] active

[in] # lookup: test call for "CCCCNc1ccc(NCCCC)c2c1C(=O)c1ccccc1C2=O"
[out] inactive

[in] # lookup: test call for C#CC1(O)CC[C@H]2[C@@H]3CCC4=CCCC[C@@H]4[C@H]3CC[C@@]21C (some centres not stated)
[out] active

[in] # lookup: test call for "C/C=C\C/C=C/CCCCCCCCOC(C)=O"
[out] active

[in] # lookup: test call for "O=C1CCCN1CCO"
[out] inactive

[in] # lookup: test call for C=CCOCC(O)CCl (configuration not stated)
[out] inactive

---

Read-out: Tissue Factor, F3 (gene 2152)
Test: BSK_CASM3C_TissueFactor: BioMAP Diversity Plus: CASM3C Assay for Tissue Factor Biomarker Activity (AID 2283052);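 further: cell surface tissue factor protein level read by ELISA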
Conditions: primary human coronary artery smooth muscle cells; actives raise or lower the signal
Activity calls are given as the source filed them. The calls were made as follows: active = hit-call score of the fitted dose curve at least 0.9, where 1 is the maximum; inactive = score below 0.9.
Choose the fitting class; nothing outside active, inactive is accepted.

[in] # lookup: test call for "CC(C)(c1cc(Br)c(OCCO)c(Br)c1)c1cc(Br)c(OCCO)c(Br)c1"
[out] inactive

[in] # lookup: test call for "C=CC=CC=CCCCCC"
[out] inactive

[in] # lookup: test call for "CCOC(=O)c1ccccc1C(=C1C=C(Br)C(=O)C(Br)=C1)c1cc(Br)c(O)c(Br)c1"
[out] inactive

[in] # lookup: test call for "CO[Si](OC)(OC)c1ccccc1"
[out] inactive

[in] # lookup: test call for "O=C(Cl)c1cc(C(=O)Cl)cc(C(=O)Cl)c1"
[out] active

[in] # lookup: test call for "c1ccc(-c2ccccn2)nc1"
[out] inactive

[in] # lookup: test call for "S=C(NC1CCCCC1)NC1CCCCC1"
[out] inactive

[in] # lookup: test call for "CCCCC/C=C\C/C=C\CCCCCCCC(=O)OC"
[out] active

[in] # lookup: test call for "CCCCCCCCCCCCCCCC[N+](C)(C)CC"
[out] active

[in] # lookup: test call for "c1ccc2c(c1)ccc1cc3c(ccc4ccccc43)cc12"
[out] inactive

[in] # lookup: test call for "CCCCCCCCc1ccc(Nc2ccc(CCCCCCCC)cc2)cc1"
[out] inactive

[in] # lookup: test call for "O=C(Nc1ccccc1SSc1ccccc1NC(=O)c1ccccc1)c1ccccc1"
[out] inactive

[in] # lookup: test call for C#CC1(O)CC[C@H]2[C@@H]3CCC4=CCCC[C@@H]4[C@H]3CC[C@@]21C (some centres not stated)
[out] active

[in] # lookup: test call for "c1ccc2c(c1)ccc1ncccc12"
[out] inactive

[in] # lookup: test call for "CCO[Si](C)(OCC)OCC"
[out] inactive

[in] # lookup: test call for C=CCOCC(O)CCl (configuration not stated)
[out] inactive

[in] # lookup: test call for "O=c1c2ccccc2oc2ccccc12"
[out] active

[in] # lookup: test call for CN1C(=O)N(C)C(O)C1O (configuration not stated)
[out] inactive

[in] # lookup: test call for "O=C(c1ccc(O)cc1)c1ccc(O)cc1O"
[out] inactive

[in] # lookup: test call for "CCO[Si](CCCN=C=O)(OCC)OCC"
[out] inactive

[in] # lookup: test call for "C=CCOc1c(Br)cc(Br)cc1Br"
[out] active

[in] # lookup: test call for "C/C=C\C/C=C/CCCCCCCCOC(C)=O"
[out] active

---

Assay: ATG_NF_kB_CIS: Attagene CIS-FACTORIAL HepG2 Assay for human Nuclear Factor Kappa B (NF-kB) (AID 2282991)
Conditions: HepG2 Attagene cis-factorial NF-kB reporter mRNA; actives raise or lower the signal
The source made the active and inactive calls. Rule for the calls: active = hit-call score of the fitted dose curve at least 0.9, where 1 is the maximum; inactive = score below 0.9.
Choose the fitting class; nothing outside yes (1) (active), no (0) (inactive) is accepted.

[in] # lookup: test call for OC1OCCOC1O (configuration not stated)
[out] no (0)

[in] # lookup: test call for "COC(=O)c1cc(Cl)ccc1[N+](=O)[O-]"
[out] no (0)

[in] # lookup: test call for "CC(C)=CCC[C@H](C)CCO"
[out] no (0)

[in] # lookup: test call for C=C1C2CCC(C2)C1(C)C (configuration not stated)
[out] no (0)

[in] # lookup: test call for CCCC(C)CCC(C)=O (configuration not stated)
[out] no (0)

[in] # lookup: test call for "NC(=O)N=NC(N)=O"
[out] no (0)

[in] # lookup: test call for "CC(=O)c1ccc[nH]1"
[out] no (0)

[in] # lookup: test call for "Cc1ccc([N+](=O)[O-])cc1S(=O)(=O)O"
[out] no (0)

[in] # lookup: test call for "CCCCC/C=C\C/C=C\CCCCCCCC(=O)OC"
[out] yes (1)

[in] # lookup: test call for "CCCCCCCCCCOS(=O)(=O)O"
[out] no (0)

[in] # lookup: test call for "C=C(C)c1cccc(C(C)(C)N=C=O)c1"
[out] no (0)

[in] # lookup: test call for "SCCc1cnccn1"
[out] yes (1)

[in] # lookup: test call for "CCO[Si](C)(OCC)OCC"
[out] no (0)

[in] # lookup: test call for "COc1ccc(NC(C)=O)cc1N"
[out] no (0)

[in] # lookup: test call for CC(=O)OC1C2(C)CCC(C2)C1(C)C (configuration not stated)
[out] no (0)

[in] # lookup: test call for "CCOCC(=O)O"
[out] no (0)

[in] # lookup: test call for "Clc1nc2ccccc2s1"
[out] no (0)

[in] # lookup: test call for "Cc1cc(C)c(C)cc1C"
[out] no (0)

[in] # lookup: test call for COCC(C)N (configuration not stated)
[out] no (0)

[in] # lookup: test call for "Cc1ccccc1C"
[out] no (0)

[in] # lookup: test call for "CCN(Cc1cccc(S(=O)(=O)O)c1)c1ccc(C(=C2C=CC(=[N+](CC)Cc3cccc(S(=O)(=O)[O-])c3)C=C2)c2ccccc2)cc1"
[out] no (0)

[in] # lookup: test call for "CCc1c(C(=O)O)c(=O)cnn1-c1ccc(Cl)cc1"
[out] no (0)

[in] # lookup: test call for "FC(F)=C(F)OC(F)(F)C(F)(F)C(F)(F)F"
[out] no (0)

[in] # lookup: test call for "CCC(=O)Oc1ccc(/C(CC)=C(\CC)c2ccc(OC(=O)CC)cc2)cc1"
[out] yes (1)

[in] # lookup: test call for C=CC(C)(CCC=C(C)C)OC(=O)CC(C)C (configuration not stated)
[out] no (0)

[in] # lookup: test call for "CN(C)c1ccc(N=Nc2ccccc2C(=O)O)cc1"
[out] no (0)

[in] # lookup: test call for "CCCOC(=O)CCCCC(=O)OCCC"
[out] no (0)

[in] # lookup: test call for C=CCOCC(O)CCl (configuration not stated)
[out] no (0)

[in] # lookup: test call for "CCOC(=O)[C@H](C)O"
[out] no (0)

[in] # lookup: test call for "C=C(C)CCO"
[out] no (0)

[in] # lookup: test call for "C=CC(=O)NC(C)(C)CS(=O)(=O)O"
[out] no (0)

[in] # lookup: test call for "OC1CCCC1"
[out] no (0)

[in] # lookup: test call for "CC1=CC[C@H]2C[C@@H]1C2(C)C"
[out] no (0)

[in] # lookup: test call for CC(C)=CC1CC(C)CCO1 (configuration not stated)
[out] no (0)

[in] # lookup: test call for "CC(C)(C)c1n[nH]c(=O)n(N)c1=O"
[out] no (0)

[in] # lookup: test call for "CCCCCCCC(C)=O"
[out] no (0)

[in] # lookup: test call for "ON(Cc1ccccc1)Cc1ccccc1"
[out] no (0)

[in] # lookup: test call for "NC(=O)OCC(COC(N)=O)c1ccccc1"
[out] no (0)

[in] # lookup: test call for "CC(=O)Nc1nnc(S(N)(=O)=O)s1"
[out] no (0)

[in] # lookup: test call for "Cc1cc(=O)n(-c2ccccc2)n1C"
[out] no (0)

[in] # lookup: test call for "CC1=Nc2ccc3ccccc3c2C1(C)C"
[out] no (0)

[in] # lookup: test call for O=C1CC2CC1C1CCCC21 (configuration not stated)
[out] no (0)

[in] # lookup: test call for "O=C1C=CC(=O)O1"
[out] no (0)

[in] # lookup: test call for CCCCCC(C)O (configuration not stated)
[out] no (0)

[in] # lookup: test call for "CCOC(F)(F)C(F)(F)C(F)(F)C(F)(F)F"
[out] no (0)

[in] # lookup: test call for NC(=O)C1CO1 (configuration not stated)
[out] no (0)

[in] # lookup: test call for "O=c1n(CCO)c(=O)n(CCO)c(=O)n1CCO"
[out] no (0)

[in] # lookup: test call for CCCCCCC1(C)CCC(=O)O1 (configuration not stated)
[out] no (0)

[in] # lookup: test call for "CCCCNc1ccc(NCCCC)c2c1C(=O)c1ccccc1C2=O"
[out] no (0)

[in] # lookup: test call for "O=c1cc[nH]c(=S)[nH]1"
[out] no (0)

[in] # lookup: test call for "O=C(Cl)c1cc(C(=O)Cl)cc(C(=O)Cl)c1"
[out] no (0)

[in] # lookup: test call for "CCCCCCCCC(=O)OCC"
[out] no (0)

[in] # lookup: test call for "CCOC(=O)NNc1nncc2ccccc12"
[out] no (0)

[in] # lookup: test call for "O=C(Nc1ccccc1SSc1ccccc1NC(=O)c1ccccc1)c1ccccc1"
[out] no (0)

[in] # lookup: test call for "CCCCCCCCCCCCCCCCCC#N"
[out] no (0)

[in] # lookup: test call for "CC(=O)c1ccc2c(c1)CCCC2"
[out] no (0)

[in] # lookup: test call for "COc1ccc(-c2coc3cc(O)ccc3c2=O)cc1"
[out] no (0)

[in] # lookup: test call for "OCCCS"
[out] no (0)

[in] # lookup: test call for "O=c1[nH]c(=O)c2[nH]c(=O)[nH]c2[nH]1"
[out] no (0)

[in] # lookup: test call for "CCCOCCOCCOCCO"
[out] no (0)

[in] # lookup: test call for CCC(C)OC(=O)c1ccc(O)cc1 (configuration not stated)
[out] no (0)

[in] # lookup: test call for "CCCCCCCCc1ccc(Nc2ccc(CCCCCCCC)cc2)cc1"
[out] no (0)
